molecular target: CYP 2C9 (Homo sapiens, UniProt P11712); assay: Inhibition of cytochrome P450 enzyme in human liver microsomes, CYP 2C9; settings: read-out: CYP 2C9 IC50; human liver microsomes; substrate Diclofenac
Sequence (P11712 whole entry): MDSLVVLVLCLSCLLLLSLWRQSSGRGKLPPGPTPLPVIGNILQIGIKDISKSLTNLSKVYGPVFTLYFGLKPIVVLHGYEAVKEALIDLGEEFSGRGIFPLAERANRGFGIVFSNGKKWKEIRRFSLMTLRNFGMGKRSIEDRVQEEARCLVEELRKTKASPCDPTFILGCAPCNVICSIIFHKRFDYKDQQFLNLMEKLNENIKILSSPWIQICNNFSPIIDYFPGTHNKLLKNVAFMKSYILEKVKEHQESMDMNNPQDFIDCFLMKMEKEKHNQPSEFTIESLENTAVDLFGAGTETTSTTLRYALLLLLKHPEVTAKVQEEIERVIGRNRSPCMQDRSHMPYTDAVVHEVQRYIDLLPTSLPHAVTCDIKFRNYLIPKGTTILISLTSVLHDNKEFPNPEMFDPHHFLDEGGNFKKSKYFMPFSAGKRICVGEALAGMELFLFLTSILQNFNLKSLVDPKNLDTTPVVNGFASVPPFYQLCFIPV
READOUT LABEL: IC50

[ask] Any idea what IC50 was measured for COc1cccc([C@]2(O)CCN(S(=O)(=O)Cc3ccccc3)C[C@H]2CN(C)C)c1.Cl [Example 20 of CN201911076305.X, hydrochloride, reference compound] ?
[reply] > 50 µM

----------
assay: Metabolic stability in liver microsomes, human; conditions: human, microsomes, pH 7.4
Where a name gives a salt, the structure may show the parent alone.
READOUT LABEL: half-life at 2 μM (min)
Give just the number in min; leave the unit off.

[2H]C([2H])([2H])N(C[C@@H]1CN(C(=O)Cc2cc(F)c(F)cc2F)CC[C@@]1(O)c1cccc(OC)c1)C([2H])([2H])[2H] [II-9hydrochloride] = 5.32

[ask] Any idea what half-life at 2 μM was measured for [2H]C([2H])([2H])Oc1cccc([C@]2(O)CCN(C(=O)Cc3cc(F)c(F)cc3F)C[C@H]2CN(C([2H])([2H])[2H])C([2H])([2H])[2H])c1 [II-11hydrochloride] ?
[reply] 6.18

[ask] Any idea what half-life at 2 μM was measured for [2H]C([2H])([2H])Oc1cccc([C@]2(O)CCN(S(=O)(=O)Cc3ccccc3)C[C@H]2CN(C([2H])([2H])[2H])C([2H])([2H])[2H])c1 [II-5hydrochloride] ?
[reply] 6.25

[ask] Any idea what half-life at 2 μM was measured for [2H]C([2H])([2H])N(C)C[C@@H]1CN(S(=O)(=O)Cc2ccccc2)CC[C@@]1(O)c1cccc(OC)c1 [II-1hydrochloride] ?
[reply] 5.22

[ask] Any idea what half-life at 2 μM was measured for COc1ccsc1CNCC[C@@]1(c2ccccn2)CCOC2(CCCC2)C1 [TRV-130, reference compound] ?
[reply] 4.08

[ask] Any idea what half-life at 2 μM was measured for [2H]C([2H])([2H])N(C)C[C@@H]1CN(C(=O)Cc2cc(F)c(F)cc2F)CC[C@@]1(O)c1cccc(OC)c1 [II-7hydrochloride] ?
[reply] 5.42

[ask] Any idea what half-life at 2 μM was measured for [2H]C([2H])([2H])N(C[C@@H]1CN(S(=O)(=O)Cc2ccccc2)CC[C@@]1(O)c1cccc(OC)c1)C([2H])([2H])[2H] [II-3hydrochloride] ?
[reply] 5.46

Origin of the recorded values: patent US12509421B2
